B1: CPOX (parent)
chain: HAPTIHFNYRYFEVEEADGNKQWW

- Variants of: B1
- method-notes: protein stability index of a GFP-peptide fusion (GPS, HEK-293T) (PSI 1-6); higher = more stable;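 further: lentivirally expressed fusions sorted by FACS into six bins by GFP to DsRed ratio, PSI derived from sequencing read proportions per bin multiplied by bin number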
- cond: c terminus: a fixed tail appended
Quick reference for protein stability index among some variants
Write the number on its own, no unit after it.

Some solved entries appear below for comparison.
[[record]]
mutation_id = "F7E"
measurement = 3.06

[[record]]
mutation_id = "G19I"
measurement = 2.07


For record Y11F the listed protein stability index is 2.26

Lab note: measured protein stability index of A17Q was 2.31

Memo: I5L , reported protein stability index: 2.14

Record V14H , field protein stability index: 2.4
